Hey, just so you know, these numbers are from ChEMBL document CHEMBL1806422.

- Test method notes: Apparent permeability from apical to basolateral side of human Caco2 cells at 10 uM by LC/MS/MS analysis
- Type: ADME, cell-based
- Test context: Caco-2
Experimental endpoint: Papp A→B at 10 µM (×10⁻⁶ cm/s)

C/C=C(\C)C(=O)N[C@@H](c1ccccc1)[C@@H](O)C(=O)O[C@H]1C[C@@]2(O)[C@@H](OC(=O)c3cccc(N=[N+]=[N-])c3)[C@@H]3[C@]4(OC(C)=O)CO[C@@H]4C[C@H](OC(=O)CN(C)C)[C@@]3(C)C(=O)[C@H](O)C(=C1C)C2(C)C    4.19

A = C/C=C(\C)C(=O)N[C@@H](c1ccccc1)[C@@H](O)C(=O)O[C@H]1C[C@@]2(O)[C@@H](OC(=O)c3cccc(N=[N+]=[N-])c3)[C@@H]3[C@]4(OC(C)=O)CO[C@@H]4C[C@H](OC(=O)CC(F)(F)F)[C@@]3(C)C(=O)[C@H](O)C(=C1C)C2(C)C
B = CC(C)NCC(O)COc1cccc2ccccc12 (stereo not drawn)
Query block: Hi, I'm comparing A with B and wondering which one has the bigger number for Papp A→B at 10 µM. Any idea? Use the label to indicate which entry you chose.
Result block: B
(B: 19.2 ×10⁻⁶ cm/s, A: 3 ×10⁻⁶ cm/s)

----------
- Test method notes: Binding affinity to microtubule after 30 mins by epothilone-B competition binding assay
pKd: −log10 of the molar value.
Experimental endpoint: pKd

Sample records with pKd:
C/C=C(\C)C(=O)N[C@@H](c1ccccc1)[C@@H](O)C(=O)O[C@H]1C[C@@]2(O)[C@@H](OC(=O)c3cccc(N=[N+]=[N-])c3)[C@@H]3[C@]4(OC(C)=O)CO[C@@H]4C[C@H](OC(=O)NC)[C@@]3(C)C(=O)[C@H](O)C(=C1C)C2(C)C    8.67
C/C=C(\C)C(=O)N[C@@H](c1ccccc1)[C@@H](O)C(=O)O[C@H]1C[C@@]2(O)[C@@H](OC(=O)c3cccc(N=[N+]=[N-])c3)[C@@H]3[C@]4(OC(C)=O)CO[C@@H]4C[C@H](OC(=O)OCC)[C@@]3(C)C(=O)[C@H](O)C(=C1C)C2(C)C    9.05
C/C=C(\C)C(=O)N[C@@H](c1ccccc1)[C@@H](O)C(=O)O[C@H]1C[C@@]2(O)[C@@H](OC(=O)c3cccc(N=[N+]=[N-])c3)[C@@H]3[C@]4(OC(C)=O)CO[C@@H]4C[C@H](OC(=O)CC(F)(F)F)[C@@]3(C)C(=O)[C@H](O)C(=C1C)C2(C)C    9.18
C/C=C(\C)C(=O)N[C@@H](c1ccccc1)[C@@H](O)C(=O)O[C@H]1C[C@@]2(O)[C@@H](OC(=O)c3cccc(N=[N+]=[N-])c3)[C@@H]3[C@]4(OC(C)=O)CO[C@@H]4C[C@H](OC(=O)C4CC4)[C@@]3(C)C(=O)[C@H](O)C(=C1C)C2(C)C    9.02

a = C/C=C(\C)C(=O)N[C@@H](c1ccccc1)[C@@H](O)C(=O)O[C@H]1C[C@@]2(O)[C@@H](OC(=O)c3cccc(N=[N+]=[N-])c3)[C@@H]3[C@]4(OC(C)=O)CO[C@@H]4C[C@H](OC(=O)CC)[C@@]3(C)C(=O)[C@H](O)C(=C1C)C2(C)C
b = C/C=C(\C)C(=O)N[C@@H](c1ccccc1)[C@@H](O)C(=O)O[C@H]1C[C@@]2(O)[C@@H](OC(=O)c3cccc(N=[N+]=[N-])c3)[C@@H]3[C@]4(OC(C)=O)CO[C@@H]4C[C@H](OC(=O)N(C)C)[C@@]3(C)C(=O)[C@H](O)C(=C1C)C2(C)C
c = CC(=O)O[C@H]1C(=O)[C@@]2(C)[C@H]([C@H](OC(=O)c3ccccc3)[C@]3(O)C[C@H](OC(=O)[C@H](O)[C@@H](NC(=O)c4ccccc4)c4ccccc4)C(C)=C1C3(C)C)[C@]1(OC(C)=O)CO[C@@H]1C[C@@H]2O
Query block: Sort by pKd, descending. Use the labels to give the ranking in the order requested.
Result block: a, b, c

I = C/C=C(\C)C(=O)N[C@@H](c1ccccc1)[C@@H](O)C(=O)O[C@H]1C[C@@]2(O)[C@@H](OC(=O)c3cccc(N=[N+]=[N-])c3)[C@@H]3[C@]4(OC(C)=O)CO[C@@H]4C[C@H](OC(=O)CN(C)C)[C@@]3(C)C(=O)[C@H](O)C(=C1C)C2(C)C
II = C/C=C(\C)C(=O)N[C@@H](c1ccccc1)[C@@H](O)C(=O)O[C@H]1C[C@@]2(O)[C@@H](OC(=O)c3cccc(N=[N+]=[N-])c3)[C@@H]3[C@]4(OC(C)=O)CO[C@@H]4C[C@H](OC(=O)CCl)[C@@]3(C)C(=O)[C@H](O)C(=C1C)C2(C)C
Query block: Hi, I'm comparing I with II and wondering which one has the bigger number for pKd. Any idea? Use the label to indicate which entry you chose.
Result block: II
(II: 9.21, I: 8.83)

----------
- Test method notes: Apparent permeability from apical to basolateral side of human Caco2 cells at 10 uM by LC/MS/MS analysis
- Type: ADME, cell-based
- Test context: Caco-2
Experimental endpoint: Papp A→B at 10 µM (×10⁻⁶ cm/s)

I = CC(=O)O[C@H]1C(=O)[C@@]2(C)[C@H]([C@H](OC(=O)c3ccccc3)[C@]3(O)C[C@H](OC(=O)[C@H](O)[C@@H](NC(=O)c4ccccc4)c4ccccc4)C(C)=C1C3(C)C)[C@]1(OC(C)=O)CO[C@@H]1C[C@@H]2O
II = C/C=C(\C)C(=O)N[C@@H](c1ccccc1)[C@@H](O)C(=O)O[C@H]1C[C@@]2(O)[C@@H](OC(=O)c3cccc(N=[N+]=[N-])c3)[C@@H]3[C@]4(OC(C)=O)CO[C@@H]4C[C@H](OC(=O)CCl)[C@@]3(C)C(=O)[C@H](O)C(=C1C)C2(C)C
III = C/C=C(\C)C(=O)N[C@@H](c1ccccc1)[C@@H](O)C(=O)O[C@H]1C[C@@]2(O)[C@@H](OC(=O)c3cccc(N=[N+]=[N-])c3)[C@@H]3[C@]4(OC(C)=O)CO[C@@H]4C[C@H](OC(=O)CNC(=O)OC(C)(C)C)[C@@]3(C)C(=O)[C@H](O)C(=C1C)C2(C)C
Query block: Please produce an ascending ranking of these compounds based on Papp A→B at 10 µM. Use the labels to give the ranking in the order requested.
Result block: II, I, III
(II: 0.19 ×10⁻⁶ cm/s, I: 0.66 ×10⁻⁶ cm/s, III: 1.23 ×10⁻⁶ cm/s)

----------
- Test method notes: Apparent permeability from basolateral to apical side of human Caco2 cells at 10 uM by LC/MS/MS analysis
- Format: ADME, cell-based
- Test context: Caco-2
Experimental endpoint: Papp B→A at 10 µM (×10⁻⁶ cm/s)

Sample records with Papp B→A at 10 µM:
C/C=C(\C)C(=O)N[C@@H](c1ccccc1)[C@@H](O)C(=O)O[C@H]1C[C@@]2(O)[C@@H](OC(=O)c3cccc(N=[N+]=[N-])c3)[C@@H]3[C@]4(OC(C)=O)CO[C@@H]4C[C@H](OC(=O)NC)[C@@]3(C)C(=O)[C@H](O)C(=C1C)C2(C)C    19.1
C/C=C(\C)C(=O)N[C@@H](c1ccccc1)[C@@H](O)C(=O)O[C@H]1C[C@@]2(O)[C@@H](OC(=O)c3cccc(N=[N+]=[N-])c3)[C@@H]3[C@]4(OC(C)=O)CO[C@@H]4C[C@H](OC(=O)CNC(=O)OC(C)(C)C)[C@@]3(C)C(=O)[C@H](O)C(=C1C)C2(C)C    8.53
C/C=C(\C)C(=O)N[C@@H](c1ccccc1)[C@@H](O)C(=O)O[C@H]1C[C@@]2(O)[C@@H](OC(=O)c3cccc(N=[N+]=[N-])c3)[C@@H]3[C@]4(OC(C)=O)CO[C@@H]4C[C@H](OC(=O)CC(F)(F)F)[C@@]3(C)C(=O)[C@H](O)C(=C1C)C2(C)C    6.61

A = C/C=C(\C)C(=O)N[C@@H](c1ccccc1)[C@@H](O)C(=O)O[C@H]1C[C@@]2(O)[C@@H](OC(=O)c3cccc(N=[N+]=[N-])c3)[C@@H]3[C@]4(OC(C)=O)CO[C@@H]4C[C@H](OC(=O)C4CC4)[C@@]3(C)C(=O)[C@H](O)C(=C1C)C2(C)C
B = C/C=C(\C)C(=O)N[C@@H](c1ccccc1)[C@@H](O)C(=O)O[C@H]1C[C@@]2(O)[C@@H](OC(=O)c3cccc(N=[N+]=[N-])c3)[C@@H]3[C@]4(OC(C)=O)CO[C@@H]4C[C@H](OC(=O)CCl)[C@@]3(C)C(=O)[C@H](O)C(=C1C)C2(C)C
Query block: Lower Papp B→A at 10 µM: A or B ? Use the label to indicate which entry you chose.
Result block: B
